# assay.summary: cell viability in Huh7 cells, primary screen, cytotoxicity control for HCV replication inhibitor project, CellTiter-Glo luminescence, basal, 48 h (AID 1143);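 note: Huh7 hepatoma cells carrying a hepatitis C replication reporter with no stimulus; test concentration not given here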
# recorded.conditions: Huh7 HCV replicon, higher = more signal, called active from +8 up or from −8 down
measured.quantity: z-score
Just the number.

>  <compound>
COC(=O)C(CC#Cc1ccc2c(c1)[C@]1(C(=O)N2)[C@H](c2ccc(OCCO)cc2)N2[C@H](c3ccccc3)[C@H](c3ccccc3)OC(=O)[C@H]2[C@@H]1C(=O)Nc1nc2ccccc2s1)C(=O)OC

>  <measured.quantity>
z-score

>  <obs.value>
-1.68

$$$$
>  <compound>
CC(C)C(CO)N1C(=O)[C@@H]2C3C(=O)OCCC/C=C\[C@H]3OC23C=CCN(CCN2CCOCC2)C(=O)[C@@H]13 (some centres undefined)

>  <measured.quantity>
z-score

>  <obs.value>
0.39

$$$$
>  <compound>
[N-]=[N+]=Nc1ccccc1[C@H]1OC(c2ccc(OCCCO)cc2)=N[C@@]1(CCS(=O)(=O)c1ccccc1)C(=O)NCC(O)CO (some centres undefined)

>  <measured.quantity>
z-score

>  <obs.value>
-1.46

$$$$
>  <compound>
CCCC[C@@H]1C[C@H]1[C@@H](NC(=O)C(C)(C)C)c1ccc(C(F)(F)F)cc1

>  <measured.quantity>
z-score

>  <obs.value>
-4.27

$$$$
>  <compound>
COC(=O)[C@@]1(Cc2ccc(OC)cc2)[C@H]2c3cc(C(=O)N(C)C)n(C)c3C[C@H]2CN1C(=O)c1ccccc1

>  <measured.quantity>
z-score

>  <obs.value>
-3.59

$$$$

Indicate the recorded z-score value for this compound: `COCCOC(=O)N1C(=O)[C@@]2(c3cc(C#CC4(O)CCCCCC4)ccc31)[C@H](c1ccccc1OCCO)N1[C@H](c3ccccc3)[C@H](c3ccccc3)OC(=O)[C@H]1[C@@H]2C(=O)N1CCN(c2ncccn2)CC1` -1.86

Indicate the recorded z-score value for this compound: `CC(C)NC(=O)[C@@H]1c2ccccc2C(=O)N(C2Cc3ccccc3C2)[C@H]1c1ccc(CO)cc1` -1.09

Hello, the source for this data is PubChem BioAssay, in case you need it.
